Sourced from paper PMC9482650

biological target: PDLIM1, O00151; experiment: holdup assay; parameters: key: below the threshold = too weak to quantify, mostly under pKd 3.1 to 4; conditions: plain residues with an end cap or a label only (N-terminal biotin on a linker: ahx)
Sequence (O00151 1-87): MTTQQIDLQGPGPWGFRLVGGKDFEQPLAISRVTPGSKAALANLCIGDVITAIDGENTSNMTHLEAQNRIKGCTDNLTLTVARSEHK
Property: pKd

Known results for binders:
In [3]: df
Out[3]:
                        binder             reported
0    GYDWGPATDL [TJP3, O95049]                 4.41
1   SDSSGQEYSL [KCTD3, Q9Y597]  below the threshold
2    TVICWPGSLV [LNX2, Q8N448]                 4.31
3  HNAFLSVTTV [PDZRN4, Q6ZMN7]  below the threshold

What the record says about PSASCAVTAA [PDLIM4, P50479;P50479-2] : pKd is below the threshold

What the record says about ESLLLGPSNF [SHROOM4, Q9ULL8] : pKd is below the threshold
